B1: Caulobacter ParB omega fusion; a variant is named by its letters at X, in order, B8GW30 (parent)
chain: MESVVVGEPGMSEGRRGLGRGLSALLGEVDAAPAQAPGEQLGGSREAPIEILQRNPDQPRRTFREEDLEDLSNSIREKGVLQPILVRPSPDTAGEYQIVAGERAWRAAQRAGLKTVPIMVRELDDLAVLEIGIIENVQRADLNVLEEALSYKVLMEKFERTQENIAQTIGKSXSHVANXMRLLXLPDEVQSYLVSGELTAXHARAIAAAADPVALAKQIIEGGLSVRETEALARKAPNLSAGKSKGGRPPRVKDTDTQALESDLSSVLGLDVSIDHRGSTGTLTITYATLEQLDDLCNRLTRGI

Variants of: B1
Method notes: one-hybrid fitness for binding parS DNA (scaled: cognate 1, non-cognate 0); higher = stronger binding
Condition description: with parS DNA site
In all, about 81,000 sequences were measured (“one-hybrid fitness for binding parS DNA”: median about -0.17, highest 2% from about 0.51 on). What follows is part of a selection rich in the highest values, with near analogues and random picks from the rest.
Reported one-hybrid fitness for binding parS DNA values for the following variants.

Prompt: I would be grateful if you could share the reported one-hybrid fitness for binding parS DNA for `RRNY` .
Completion: 0.727

Prompt: I would be grateful if you could share the reported one-hybrid fitness for binding parS DNA for `PLHG` .
Completion: ≤ 0.2

Prompt: I would be grateful if you could share the reported one-hybrid fitness for binding parS DNA for `RMKH` .
Completion: 0.24

Prompt: I would be grateful if you could share the reported one-hybrid fitness for binding parS DNA for `RADY` .
Completion: 0.389

Prompt: I would be grateful if you could share the reported one-hybrid fitness for binding parS DNA for `KSAC` .
Completion: ≤ 0.2

Prompt: I would be grateful if you could share the reported one-hybrid fitness for binding parS DNA for `HVLF` .
Completion: ≤ 0.2

Prompt: I would be grateful if you could share the reported one-hybrid fitness for binding parS DNA for `RHCA` .
Completion: 0.55

Prompt: I would be grateful if you could share the reported one-hybrid fitness for binding parS DNA for `RNDF` .
Completion: ≤ 0.2

Prompt: I would be grateful if you could share the reported one-hybrid fitness for binding parS DNA for `KCHG` .
Completion: ≤ 0.2

Prompt: I would be grateful if you could share the reported one-hybrid fitness for binding parS DNA for `CTRC` .
Completion: ≤ 0.2

Prompt: I would be grateful if you could share the reported one-hybrid fitness for binding parS DNA for `CTCV` .
Completion: ≤ 0.2

Prompt: I would be grateful if you could share the reported one-hybrid fitness for binding parS DNA for `RPQY` .
Completion: ≤ 0.2

Prompt: I would be grateful if you could share the reported one-hybrid fitness for binding parS DNA for `RKKR` .
Completion: ≤ 0.2

Prompt: I would be grateful if you could share the reported one-hybrid fitness for binding parS DNA for `RMVD` .
Completion: ≤ 0.2

Prompt: I would be grateful if you could share the reported one-hybrid fitness for binding parS DNA for `RNNT` .
Completion: 0.785

Prompt: I would be grateful if you could share the reported one-hybrid fitness for binding parS DNA for `RCQY` .
Completion: 0.493

Prompt: I would be grateful if you could share the reported one-hybrid fitness for binding parS DNA for `PMTF` .
Completion: ≤ 0.2

Prompt: I would be grateful if you could share the reported one-hybrid fitness for binding parS DNA for `MCGR` .
Completion: ≤ 0.2

Prompt: I would be grateful if you could share the reported one-hybrid fitness for binding parS DNA for `RMKS` .
Completion: 0.832

Prompt: I would be grateful if you could share the reported one-hybrid fitness for binding parS DNA for `ICTY` .
Completion: ≤ 0.2
